B1: CPEB3 Ribozyme (parent)
chain: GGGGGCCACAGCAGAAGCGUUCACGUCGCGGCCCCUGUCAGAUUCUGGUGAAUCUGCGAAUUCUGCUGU

- Variants of: B1
- Method notes: self-cleavage, relative activity (ratio to wild type); higher = more cleavage; co-transcriptional
The label depends only on self-cleavage: Satisfied if it is at least 0.3, Not satisfied if it is smaller.

# count of solved cases: 5
G25A G65U
Not satisfied
C9A C18G
Not satisfied
C7U G48C
Satisfied
C27A A51G
Satisfied
C9A U55G
Satisfied

QUERY: Identify whether the reported self-cleavage of the following variant is 0.3 or greater: U21G U53A
RESULT: Satisfied

QUERY: Identify whether the reported self-cleavage of the following variant is 0.3 or greater: G17A G47U
RESULT: Satisfied

QUERY: Identify whether the reported self-cleavage of the following variant is 0.3 or greater: C54G C57U
RESULT: Satisfied

QUERY: Identify whether the reported self-cleavage of the following variant is 0.3 or greater: G3U U26A
RESULT: Not satisfied

QUERY: Identify whether the reported self-cleavage of the following variant is 0.3 or greater: A10G G65A
RESULT: Satisfied
